Recorded values, source patent US11524966B1.

Target: USP28 (USP28-5(1-1077)-TEV-6*His; LifeSensors) (Homo sapiens)
Construct: construct USP28 (USP28-5(1-1077)-TEV-6*His; LifeSensors); TEV cleavage site (C); 6xHis (C); purchased LifeSensors
Sequence (Q96RU2 1-1077): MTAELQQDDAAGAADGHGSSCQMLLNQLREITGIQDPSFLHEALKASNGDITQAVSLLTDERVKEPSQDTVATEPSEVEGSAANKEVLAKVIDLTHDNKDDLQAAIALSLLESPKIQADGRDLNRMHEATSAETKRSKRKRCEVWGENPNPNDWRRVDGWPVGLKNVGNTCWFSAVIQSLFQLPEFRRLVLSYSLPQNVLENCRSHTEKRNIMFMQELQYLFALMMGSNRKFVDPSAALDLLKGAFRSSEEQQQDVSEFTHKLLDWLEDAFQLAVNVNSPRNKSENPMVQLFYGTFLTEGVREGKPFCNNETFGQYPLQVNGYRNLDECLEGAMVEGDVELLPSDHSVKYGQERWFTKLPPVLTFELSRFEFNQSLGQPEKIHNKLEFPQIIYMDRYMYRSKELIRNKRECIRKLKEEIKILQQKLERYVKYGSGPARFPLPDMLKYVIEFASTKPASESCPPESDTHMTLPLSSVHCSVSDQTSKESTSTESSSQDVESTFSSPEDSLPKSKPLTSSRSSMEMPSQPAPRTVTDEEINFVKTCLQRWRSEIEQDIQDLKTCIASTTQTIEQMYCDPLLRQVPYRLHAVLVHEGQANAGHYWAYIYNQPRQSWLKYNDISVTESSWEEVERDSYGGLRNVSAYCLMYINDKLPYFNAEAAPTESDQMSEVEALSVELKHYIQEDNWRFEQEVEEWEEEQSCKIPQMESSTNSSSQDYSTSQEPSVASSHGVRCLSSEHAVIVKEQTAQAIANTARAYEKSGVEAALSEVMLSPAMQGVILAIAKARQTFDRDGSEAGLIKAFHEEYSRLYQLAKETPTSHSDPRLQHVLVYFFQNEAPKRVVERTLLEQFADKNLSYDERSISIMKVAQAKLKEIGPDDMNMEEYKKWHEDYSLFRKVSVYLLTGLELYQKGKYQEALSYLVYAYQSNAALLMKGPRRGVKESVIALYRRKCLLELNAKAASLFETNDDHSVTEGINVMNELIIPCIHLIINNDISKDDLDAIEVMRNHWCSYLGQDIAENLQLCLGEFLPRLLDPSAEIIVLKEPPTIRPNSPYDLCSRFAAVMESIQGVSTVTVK
Test: Ubiquitin-Rhodamine 110 Assay for USP28 Activity, Example A-1(b)
Type: biochemical
Conditions: Ubiquitin-Rhodamine 110 assay, Example A-1(b)
Assay readout: USP28 A-1(b) IC50 range

Compound: Cc1ccc2c(N)c(C(=O)N[C@H]3COc4cc(N5C[C@@H](N)[C@H](F)C5)ccc4C3)sc2n1
Assay readout: USP28 A-1(b) IC50 range
Val: ++ (0.2-2 μM)
//
Compound: COC[C@@H]1CN(c2ccc3c(n2)OC[C@H](NC(=O)c2sc4nc(C)cc(C)c4c2N)C3)C[C@@H]1N
Assay readout: USP28 A-1(b) IC50 range
Val: + (>2 μM)
//
Compound: Cc1ccc2c(N)c(C(=O)N[C@H]3COc4cc(N5CCN[C@H](C(F)(F)F)C5)ccc4C3)sc2n1
Assay readout: USP28 A-1(b) IC50 range
Val: ++ (0.2-2 μM)
//
Compound: Cc1cnc2c(N)c(C(=O)N[C@H]3COc4cc(N5CC6CCC(C5)N6)c(F)cc4C3)sc2n1 (single isomer, unassigned)
Assay readout: USP28 A-1(b) IC50 range
Val: +++ (0.05-0.2 μM)
//
Compound: Cc1ccc2c(N)c(C(=O)N[C@@H]3COc4cc(N5CCNCC5)cc(Cl)c4C3)sc2n1
Assay readout: USP28 A-1(b) IC50 range
Val: + (>2 μM)
//
Compound: Cc1ccc2c(N)c(C(=O)N[C@H]3COc4cc(N5CCNCC5)cc(F)c4C3)sc2n1
Assay readout: USP28 A-1(b) IC50 range
Val: +++ (0.05-0.2 μM)
//
Compound: Cc1cnc2c(N)c(C(=O)N[C@H]3CCc4cc(N5CC6CCC(C5)N6)cc(F)c4C3)sc2n1 (single isomer, unassigned)
Assay readout: USP28 A-1(b) IC50 range
Val: + (>2 μM)
//
Compound: Cc1cc(C)n2ncc(C(=O)N[C@H]3COc4cc(N5CCNCC5)ccc4C3)c2n1
Assay readout: USP28 A-1(b) IC50 range
Val: + (>2 μM)
//
Compound: Cc1cnc2c(N)c(C(=O)N[C@H]3CCc4cc(N5CCNC[C@H](O)C5)ccc4C3)sc2n1 (single isomer, unassigned)
Assay readout: USP28 A-1(b) IC50 range
Val: ++ (0.2-2 μM)
//
Compound: CCn1ccc2cc(C(=O)N[C@@H]3CCc4cc(N5CC6CCC(C5)N6)ccc4C3)nnc21 (single isomer, unassigned)
Assay readout: USP28 A-1(b) IC50 range
Val: + (>2 μM)
//
Compound: Cc1ccc2c(N)c(C(=O)N[C@H]3COc4cc(N5CCC(O)CC5)ccc4C3)sc2n1
Assay readout: USP28 A-1(b) IC50 range
Val: +++ (0.05-0.2 μM)
//
Compound: Cc1ccc2c(N)c(C(=O)N[C@H]3CCc4cc(N5CCNCC5)ccc4C3)sc2n1 (single isomer, unassigned)
Assay readout: USP28 A-1(b) IC50 range
Val: ++ (0.2-2 μM)
//
Compound: Cc1cc(C(F)(F)F)c2c(N)c(C(=O)N[C@H]3COc4cc(N5CCNCC5)cc(F)c4C3)sc2n1
Assay readout: USP28 A-1(b) IC50 range
Val: ++ (0.2-2 μM)

---

Readings of IC50 for the listed compounds
Target: USP25 (USP25-His6, Boston Biochem E-546) (Homo sapiens, UniProt Q9UHP3)
Construct: His6; purchased Boston Biochem E-546
Sequence (Q9UHP3 1-1055): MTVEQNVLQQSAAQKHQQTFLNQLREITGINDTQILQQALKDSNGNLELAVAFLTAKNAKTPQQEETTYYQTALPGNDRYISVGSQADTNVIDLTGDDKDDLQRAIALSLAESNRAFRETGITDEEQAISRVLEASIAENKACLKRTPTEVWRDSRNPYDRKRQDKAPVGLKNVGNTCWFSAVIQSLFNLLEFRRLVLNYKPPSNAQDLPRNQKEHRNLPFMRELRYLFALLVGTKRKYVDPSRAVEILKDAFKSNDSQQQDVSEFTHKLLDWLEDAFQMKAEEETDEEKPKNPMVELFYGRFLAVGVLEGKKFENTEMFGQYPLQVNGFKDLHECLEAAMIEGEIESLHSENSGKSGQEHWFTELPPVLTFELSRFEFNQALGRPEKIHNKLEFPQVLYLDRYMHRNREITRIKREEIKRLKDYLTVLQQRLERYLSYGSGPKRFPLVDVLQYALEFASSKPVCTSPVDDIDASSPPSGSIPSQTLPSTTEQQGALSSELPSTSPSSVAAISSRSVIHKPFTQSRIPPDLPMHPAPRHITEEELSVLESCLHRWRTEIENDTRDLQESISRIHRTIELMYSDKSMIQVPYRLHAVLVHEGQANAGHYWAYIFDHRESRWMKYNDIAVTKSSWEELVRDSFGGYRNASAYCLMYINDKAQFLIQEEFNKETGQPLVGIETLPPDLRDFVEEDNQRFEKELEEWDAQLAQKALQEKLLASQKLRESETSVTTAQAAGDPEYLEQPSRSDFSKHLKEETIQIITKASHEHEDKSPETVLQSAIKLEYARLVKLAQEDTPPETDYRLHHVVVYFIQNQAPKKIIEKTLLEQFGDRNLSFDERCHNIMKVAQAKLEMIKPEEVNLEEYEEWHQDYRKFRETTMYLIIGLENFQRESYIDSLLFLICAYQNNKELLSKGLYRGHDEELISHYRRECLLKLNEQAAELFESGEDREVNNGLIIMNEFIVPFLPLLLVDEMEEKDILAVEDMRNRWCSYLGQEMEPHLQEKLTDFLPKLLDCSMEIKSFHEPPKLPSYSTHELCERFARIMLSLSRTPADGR
Assay: Ubiquitin-Rhodamine 110 Assay for USP25 Activity, Example A-2
Format: biochemical
Details: Ubiquitin-Rhodamine 110 assay, Example A-2; read-out: USP25 A-2 IC50 range

Compound: Cc1ccc2c(N)c(C(=O)N[C@H]3COc4cc([C@H]5CCNC[C@H]5F)ccc4C3)sc2n1 [Example 82]
IC50: 1 to 50 nM
--
Compound: Cc1ccc2c(N)c(C(=O)N[C@H]3COc4cc(N5CC6CNCC(C5)O6)c(F)c(F)c4C3)sc2n1 [Example 79]
IC50: 1 to 50 nM
--
Compound: Cc1ccc2c(N)c(C(=O)N[C@H]3COc4cc(N5CC6COCC(C5)C6(F)F)ccc4C3)sc2n1 [Example 5-4]
IC50: 50 to 200 nM
--
Compound: COC[C@H]1CN(c2ccc3c(n2)CC[C@H](NC(=O)c2sc4nc(C)cc(C)c4c2N)C3)C[C@H]1N [Example 297]
IC50: 200 to 2000 nM
